Reported Kd values for a set of binders
# Target Of Assay: T1, EsCas13d, nuclease-dead (Eubacterium siraeum, UniProt B0MS50, R295A;H300A;R849A;H854A)
# T1 sequence: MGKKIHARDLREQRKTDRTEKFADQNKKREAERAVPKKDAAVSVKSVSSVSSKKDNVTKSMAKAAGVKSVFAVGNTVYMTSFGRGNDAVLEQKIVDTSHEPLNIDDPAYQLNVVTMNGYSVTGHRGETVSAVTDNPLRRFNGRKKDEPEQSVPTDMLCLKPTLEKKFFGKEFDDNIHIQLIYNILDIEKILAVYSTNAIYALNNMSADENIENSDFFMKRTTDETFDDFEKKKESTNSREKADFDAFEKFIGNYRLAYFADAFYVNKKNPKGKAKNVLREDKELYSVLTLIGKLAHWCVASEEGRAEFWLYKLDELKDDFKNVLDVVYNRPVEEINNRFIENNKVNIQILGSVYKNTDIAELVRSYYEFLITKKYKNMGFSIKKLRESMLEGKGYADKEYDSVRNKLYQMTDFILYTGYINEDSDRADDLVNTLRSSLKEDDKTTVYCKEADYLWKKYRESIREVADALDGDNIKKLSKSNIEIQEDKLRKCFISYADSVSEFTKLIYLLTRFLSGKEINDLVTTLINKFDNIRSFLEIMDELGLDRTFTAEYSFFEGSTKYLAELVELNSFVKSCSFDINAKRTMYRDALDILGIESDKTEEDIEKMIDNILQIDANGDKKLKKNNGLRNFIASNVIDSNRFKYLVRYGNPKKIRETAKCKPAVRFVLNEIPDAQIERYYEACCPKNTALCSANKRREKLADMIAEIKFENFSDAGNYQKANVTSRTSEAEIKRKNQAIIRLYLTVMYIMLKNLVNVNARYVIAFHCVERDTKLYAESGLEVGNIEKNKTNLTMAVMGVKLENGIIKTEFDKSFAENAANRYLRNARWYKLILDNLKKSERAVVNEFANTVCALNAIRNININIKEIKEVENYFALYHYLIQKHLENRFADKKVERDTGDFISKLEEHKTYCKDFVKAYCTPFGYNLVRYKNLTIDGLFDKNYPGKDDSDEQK
# Experiment: crRNA (strand 1, pre-loaded); Mg2+; 40 mM Tris-HCl pH 7.5, 150 mM NaCl, 6 mM MgCl2, 1 mM DTT, 0.1% Tween-20, 0.2 mg/ml BSA; 25 C; 10 min per concentration, then washed
# Details: tags: His6-TwinStrep-SUMO cleaved; N-terminal SNAP kept (SNAP-Surface 488); label: 3' end held by stalled T7 RNA polymerase
Give just the numeric value; nM need not be written.

Examples with answers:
# Binder, Kd, nM
rows = [
    ("target 2 MT 5'PFS GUU 3'PFS UUC (mixed) RNA 1: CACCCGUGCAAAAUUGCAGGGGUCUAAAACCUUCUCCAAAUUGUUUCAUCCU RNA 2: GGGAAUGGAUCCACAUCUACGAAUUCGUUAGGAUGAAACAAUUUGGAGAAGUUCAGAUCGGAAGAGCACACGU", 31),
    ("target 1 C7U,U10A (mixed) RNA 1: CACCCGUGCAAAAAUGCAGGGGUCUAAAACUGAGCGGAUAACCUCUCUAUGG RNA 2: GGGAAUGGAUCCACAUCUACGAAUUCGUACCAUAGAGAGGUAAUUCGCUCACCGAGAUCGGAAGAGCACACGU", 7.8),
    ("target 3 insG 3' of 6,insA 3' of 4 (mixed) RNA 1: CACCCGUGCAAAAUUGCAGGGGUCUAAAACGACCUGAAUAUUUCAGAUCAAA RNA 2: GGGAAUGGAUCCACAUCUACGAAUUCGUUUUUGAUCUGAAAUAUUCGAGAGUCUGCAGAUCGGAAGAGCACACGU", 12.3),
    ("target 3 insC 3' of 11,insA 3' of 7 (mixed) RNA 1: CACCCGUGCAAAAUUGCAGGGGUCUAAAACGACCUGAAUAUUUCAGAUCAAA RNA 2: GGGAAUGGAUCCACAUCUACGAAUUCGUUUUUGAUCUGAAACUAUUACAGGUCUGCAGAUCGGAAGAGCACACGU", 65),
]

# query: Kd of entry target 1 insG 3' of 18,insG 3' of 11 (mixed) RNA 1: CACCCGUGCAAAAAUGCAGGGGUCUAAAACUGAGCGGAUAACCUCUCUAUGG RNA 2: GGGAAUGGAUCCACAUCUACGAAUUCGUACCAUAGGAGAGGUGUAUCCGCUCACCGAGAUCGGAAGAGCACACGU
92

# query: Kd of entry target 1 insA 3' of 3,insG 3' of 2 (mixed) RNA 1: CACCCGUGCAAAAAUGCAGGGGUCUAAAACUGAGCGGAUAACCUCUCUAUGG RNA 2: GGGAAUGGAUCCACAUCUACGAAUUCGUACCAUAGAGAGGUUAUCCGCUACGACCGAGAUCGGAAGAGCACACGU
7.05

# query: Kd of entry target 1 insA 3' of 10,insG 3' of 1 (mixed) RNA 1: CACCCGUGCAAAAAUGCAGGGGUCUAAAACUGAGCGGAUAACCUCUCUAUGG RNA 2: GGGAAUGGAUCCACAUCUACGAAUUCGUACCAUAGAGAGGUUAAUCCGCUCAGCCGAGAUCGGAAGAGCACACGU
14.4

# query: Kd of entry target 2 MT 5'PFS UGC 3'PFS CCA (mixed) RNA 1: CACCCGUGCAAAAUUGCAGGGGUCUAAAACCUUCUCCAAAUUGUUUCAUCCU RNA 2: GGGAAUGGAUCCACAUCUACGAAUUCUGCAGGAUGAAACAAUUUGGAGAAGCCAAGAUCGGAAGAGCACACGU
16
